From: paper PMC3968096

Tested on: VEGF165 (soluble) (human), P15692-4
Sequence: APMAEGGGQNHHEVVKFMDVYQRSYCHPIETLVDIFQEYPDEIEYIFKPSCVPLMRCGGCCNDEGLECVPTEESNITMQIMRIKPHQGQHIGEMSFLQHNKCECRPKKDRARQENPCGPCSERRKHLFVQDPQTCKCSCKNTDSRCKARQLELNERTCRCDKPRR
assay-name: F-EMSA
setup-conditions: 1 mM Mg2+; same value is also printed for SL12; 10 mM HEPES pH 7.9, 125 mM NaCl, 25 mM KCl, 1 mM MgCl2; F-EMSA at room temperature for 2 h, 5% PAGE at 4 C; flow cytometry in the same buffer
measured-quantity: pKd
Notebook: values listed as pKd are -log10 of the concentration (mol/L).

Specify measured pKd for AAAGCCCACTGCATAGAGGCCGCTCAACATGCGAGCCGGT [hVap2_T2160] .
6.97
